Target: Neu5Ac(a2-3)[Neu5Ac(a2-6)]GalNAc
Assay: glycan array binding signal (z-score within array); higher = stronger binding
Details: glycan notation: IUPAC condensed, linker removed
About 410 targets per protein were measured; listed, in parts, are those with the strongest signals and a random draw of the rest.
Measure Name: glycan array binding signal (z-score)

[[record]]
binder = "SrpA (Streptococcus sanguis) (protein) SSKSESTVNSQSASSETNRSSTNNGSTSSSSETARVRKRRATDTTPPTITVPSDIIAYRGEEFEFYFEITDDSGQVKNIELSTFGKPLGLNWLEYSEDNFNVPGNATSDNPLRVRVHGTVPLNEPIPADKNRAQFTRTIRAWDAAGNVSSNITFVIKYRAQTDKYNPADPTITYVDRLSSLSPSEKNAVEAAVRAANPQIPAAARITVSANGTVTITYPDSSTDTITANRVVKDLASSRSALT"
endpoint_value = -0.566

[[record]]
binder = "PLU (Photorhabdus luminiscence) (protein) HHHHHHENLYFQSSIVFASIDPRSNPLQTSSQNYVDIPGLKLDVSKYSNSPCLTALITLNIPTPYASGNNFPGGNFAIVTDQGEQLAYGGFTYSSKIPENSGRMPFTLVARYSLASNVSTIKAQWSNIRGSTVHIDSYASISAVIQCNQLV"
endpoint_value = -0.281

[[record]]
binder = "CFEM-CGl (Candida glabrata), Q6FRS0 (protein) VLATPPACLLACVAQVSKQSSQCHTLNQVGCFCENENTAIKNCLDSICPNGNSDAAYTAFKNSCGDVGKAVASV"
endpoint_value = -0.425

[[record]]
binder = "SAG3 (Toxoplasma gondii), Q9BJ39 (protein) MQLWRRRAAGPASLGRQSLPLGCFFAAFGLCVLSAILGTGERGLFVAAGNSRRKITYFGTLTQKAPNWYRCSSTRAKEEVVGHVTLNKEHPDMTIECVDDGLGGEFLPLEGARSSYPRVCHIDAKDQDDCERNRGFLTDYIPGAKQYWYKIEKVEQNGEQSVLYKFTVPWILLPPAKQRYKVGCRYPNHEYCFVEVTVEPTPPMVEGKRVTCGYSESGPVNLEVDLSKNANFIEIRCGEQHHPQPSTYTLQYCSGDSVDPQKCSPQSLTNIFYDYSSSWWKGKLNGPDGATLTIPPGGFPEEDKSFLVGCSLTVDGPPFCNVKVRVAGNPRKWERGGGGHPGSGGLQPGTDGETQAGTGSSAGASSRMASVALAFLLGLLVHVAA"
endpoint_value = -0.226

[[record]]
binder = "SpnanA (Streptococcus pneumoniae), P62575 (protein) MVIEKEDVETNASNGQRVDLSSELDKLKKLENATVHMEFKPDAKAPAFYNLFSVSSATKKDEYFTMAVYNNTATLEGRGSDGKQFYNNYNDAPLKVKPGQWNSVTFTVEKPTAELPKGRVRLYVNGVLSRTSLRSGNFIKDMPDVTHVQIGATKRANNTVWGSNLQIRNLTVYNRALTPEEVQKRS"
endpoint_value = 2.61

[[record]]
binder = "Epa1 (Candida glabrata) (protein) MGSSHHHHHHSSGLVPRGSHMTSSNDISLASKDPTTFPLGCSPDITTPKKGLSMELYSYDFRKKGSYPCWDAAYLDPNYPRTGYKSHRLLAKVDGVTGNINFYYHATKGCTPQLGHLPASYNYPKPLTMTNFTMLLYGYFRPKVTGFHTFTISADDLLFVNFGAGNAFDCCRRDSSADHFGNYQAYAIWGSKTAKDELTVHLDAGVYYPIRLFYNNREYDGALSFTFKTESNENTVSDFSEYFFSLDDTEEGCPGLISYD"
endpoint_value = -0.328

[[record]]
binder = "3FTT (Staphylococcus aureus), Q5HCZ5 (protein) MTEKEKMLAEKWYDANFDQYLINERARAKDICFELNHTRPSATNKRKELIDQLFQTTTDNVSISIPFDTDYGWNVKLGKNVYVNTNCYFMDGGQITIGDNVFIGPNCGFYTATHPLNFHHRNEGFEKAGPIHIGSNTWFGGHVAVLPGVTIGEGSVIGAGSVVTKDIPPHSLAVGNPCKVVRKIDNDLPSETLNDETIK"
endpoint_value = 0.223

[[record]]
binder = "PNGase F (Flavobacterium meningosepticum) (protein) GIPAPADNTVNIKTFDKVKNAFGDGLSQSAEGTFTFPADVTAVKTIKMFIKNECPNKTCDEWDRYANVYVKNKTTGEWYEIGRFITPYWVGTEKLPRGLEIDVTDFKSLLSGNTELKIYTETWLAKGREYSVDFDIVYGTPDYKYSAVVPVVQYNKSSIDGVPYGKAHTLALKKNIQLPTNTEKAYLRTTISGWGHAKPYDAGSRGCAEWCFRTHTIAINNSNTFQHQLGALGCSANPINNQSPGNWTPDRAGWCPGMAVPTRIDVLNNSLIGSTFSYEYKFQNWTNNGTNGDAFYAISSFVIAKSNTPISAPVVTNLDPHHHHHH"
endpoint_value = 0.36

